molecular target: T1, human VEGF (human, UniProt P15692-4 27-191); test: SPR (BIAcore X100), VEGF on CM5 chip, IgG injected, 1:1 Langmuir
T1 construct: Bought recombinant protein; also called hVEGF; human VEGF-A
T1 sequence (P15692 other isoform, or with tags, fused parts or gaps limits assumed): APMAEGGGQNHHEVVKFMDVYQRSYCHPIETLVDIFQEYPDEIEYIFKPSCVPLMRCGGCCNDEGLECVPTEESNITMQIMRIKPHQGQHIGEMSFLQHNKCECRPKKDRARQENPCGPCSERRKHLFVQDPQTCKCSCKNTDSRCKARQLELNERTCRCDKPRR
readout type: koff (s⁻¹)
# output: bare number, implied unit s⁻¹

*Q* Given HF2-7 (antibody, V domains shown) VH: EVQLVESGGGLVQPGGSLRLSCAASQFWIRSHGMQWVRQAPGKGLEYVAGISSDGSWFRVAAAVEGRFTISRDDSKNTAYLQMNSLRAEDTAVYYCARDFSTGYGADSIDAWGQGTLVTVSS VL: DIQMTQSPSSLSASVGDRVTITCSGGSMEPLGYGWYQQKPGKAPKTLIYWDDKRPSGVPSRFSGSRSGTDFTLTISSLQPEDFATYYCGAWEYSGGVGIFGQGTKVEIK , state its recorded koff.
*A* 2.7e-05
